Values from the supplement of paper PMC11417369

Test system: PfAP2-LT AP2 domain (GST-tagged)
measurement-notes: gcPBM binding intensity (ln(normalized median fluorescence intensity)); higher = stronger DNA binding
In all, about 25,000 sequences were measured (“ln(normalized median fluorescence intensity)”: median about 8.9, highest 2% from about 10 on). The sample holds the highest values, similar sequences and a random draw of the others, so the mix is not that of the screen.
Let's look at some sequences and their measured gcPBM binding intensity (ln).
metric-name: gcPBM binding intensity (ln)

| seq | system | metric-name | observed-result |
| --- | --- | --- | --- |
| AAGAAAAGAAACAAAAAAAAAAAGAAATAAAAGGAA [TGCATGCA_negctrl_site171] | PfAP2-LT AP2 domain (GST-tagged) | gcPBM binding intensity (ln) | 8.61 |
| TGCATATACTCAAGCACACATATATATATATATATA [CACACA_site4733] | PfAP2-LT AP2 domain (GST-tagged) | gcPBM binding intensity (ln) | 9.76 |
| CATACACCCATACATACACACATACATATATATATA [CACACA_site8591] | PfAP2-LT AP2 domain (GST-tagged) | gcPBM binding intensity (ln) | 9.62 |
| CAAACCCACCAACACACACACACAAAAATGATTAAA [CACACA_site2432] | PfAP2-LT AP2 domain (GST-tagged) | gcPBM binding intensity (ln) | 9.88 |
| CATATACATACACATACACACATACACCCATACACA [CACACA_site8514] | PfAP2-LT AP2 domain (GST-tagged) | gcPBM binding intensity (ln) | 9.68 |
| ATATATTTCAAAGGGGTGCAGGCATATTTAAGCAAA | PfAP2-LT AP2 domain (GST-tagged) | gcPBM binding intensity (ln) | 8.69 |
| TTATATGTATGAACAAGTACATGCTATAATTATAAA [XGTACX_site1399] | PfAP2-LT AP2 domain (GST-tagged) | gcPBM binding intensity (ln) | 8.57 |
| AAAAAAAAAACAAATACACACGCACCCAAAAAAAAA [CACACA_site8166] | PfAP2-LT AP2 domain (GST-tagged) | gcPBM binding intensity (ln) | 9.61 |
| TTACAAAAAAAAAGGCGCGGATGGGGGCAATAGCAA [CACACA_negctrl_site238] | PfAP2-LT AP2 domain (GST-tagged) | gcPBM binding intensity (ln) | 9.39 |
| TCAAAGCACAGATACACACACATATATATATATATA [CACACA_site287] | PfAP2-LT AP2 domain (GST-tagged) | gcPBM binding intensity (ln) | 10.2 |
| CAACAACAAAAAAAAAAATAATAATAATAAAAAATA [TGCATGCA_negctrl_site271] | PfAP2-LT AP2 domain (GST-tagged) | gcPBM binding intensity (ln) | 8.71 |
| ATAATTAGGGTGTATTTCATTTCATTTCATTTTATT [CACACA_negctrl_site1418] | PfAP2-LT AP2 domain (GST-tagged) | gcPBM binding intensity (ln) | 9.04 |
| TATATACACAAACACACACACACATACACCCACATA [CACACA_site8504] | PfAP2-LT AP2 domain (GST-tagged) | gcPBM binding intensity (ln) | 10.2 |
| TCAAAGCACCCATACACACACATATATATATATATA [CACACA_site4317] | PfAP2-LT AP2 domain (GST-tagged) | gcPBM binding intensity (ln) | 10.2 |
| AAAAGAAAAAGAAAAACACACATAAATATAAATATA [CACACA_site1879] | PfAP2-LT AP2 domain (GST-tagged) | gcPBM binding intensity (ln) | 8.93 |
| GTTGCCATCATTTGGCGTACAGTCAAAACCAAATCT [XGTACX_site1398] | PfAP2-LT AP2 domain (GST-tagged) | gcPBM binding intensity (ln) | 8.56 |
| CATATTTGGAAACACACACACATATTTATATATATA [CACACA_site3569] | PfAP2-LT AP2 domain (GST-tagged) | gcPBM binding intensity (ln) | 9.62 |
| TCAAAGCACACATACACACACATATAGATTTATATA [CACACA_site6272] | PfAP2-LT AP2 domain (GST-tagged) | gcPBM binding intensity (ln) | 9.73 |
| AAAAAAAACACGCGCACACACACACCCACAGACACA [CACACA_site5253] | PfAP2-LT AP2 domain (GST-tagged) | gcPBM binding intensity (ln) | 10.2 |
| TATACATACCCACCCACACACAAAAAAAAAAAAAAA [CACACA_site4632] | PfAP2-LT AP2 domain (GST-tagged) | gcPBM binding intensity (ln) | 9.76 |
| CACTAAAAGAAACACACACACACACCCATATATATA [CACACA_site4151] | PfAP2-LT AP2 domain (GST-tagged) | gcPBM binding intensity (ln) | 10.2 |
| TATACATACACATACACACATACACCCATACACATA [CACACA_site1746] | PfAP2-LT AP2 domain (GST-tagged) | gcPBM binding intensity (ln) | 9.69 |
| GATGAATAAATCAAAGCACACATACACCCACATATA [CACACA_site7986] | PfAP2-LT AP2 domain (GST-tagged) | gcPBM binding intensity (ln) | 9.67 |
| AGAAAAAAACAACATGCACACGCACCCACAAAAAAA [CACACA_site7908] | PfAP2-LT AP2 domain (GST-tagged) | gcPBM binding intensity (ln) | 9.51 |
| TTCTATTCACATTTTACACACGTCCATCGCATTTTA [CACACA_site3453] | PfAP2-LT AP2 domain (GST-tagged) | gcPBM binding intensity (ln) | 9.44 |
| TATATATATTTATGTTGTACAAAATATTATTACGTA [XGTACX_site5384] | PfAP2-LT AP2 domain (GST-tagged) | gcPBM binding intensity (ln) | 8.57 |
| GTAATACCCAAACACACACACATACCCATATATATA [CACACA_site5510] | PfAP2-LT AP2 domain (GST-tagged) | gcPBM binding intensity (ln) | 10.1 |
| GTTACACCAACAAACACACACACACCCACCCACAAA [CACACA_site2427] | PfAP2-LT AP2 domain (GST-tagged) | gcPBM binding intensity (ln) | 10.3 |
| AAAAAAAAAAAACACACACACACACCCATATATAAA [CACACA_site1170] | PfAP2-LT AP2 domain (GST-tagged) | gcPBM binding intensity (ln) | 9.99 |
| CAGGCACTAATAAACACACACATATAAATATAAATA [CACACA_site6320] | PfAP2-LT AP2 domain (GST-tagged) | gcPBM binding intensity (ln) | 9.38 |
| AAATGTACAGGACGCACACACATATTTATATTTATA [CACACA_site7689] | PfAP2-LT AP2 domain (GST-tagged) | gcPBM binding intensity (ln) | 9.53 |
| GTTACACCAACAAACACACACACACCGACACCCAAA [CACACA_site5361] | PfAP2-LT AP2 domain (GST-tagged) | gcPBM binding intensity (ln) | 10.1 |
| TGCATATACGCAAGCACACATATATATATATATATA [CACACA_site1069] | PfAP2-LT AP2 domain (GST-tagged) | gcPBM binding intensity (ln) | 10.1 |
| ATAGACAGCGCACAAACACACAAACACCCACCCACA [CACACA_site8043] | PfAP2-LT AP2 domain (GST-tagged) | gcPBM binding intensity (ln) | 9.99 |
| ACTTTTTTTTTGTGTGTGCACTCGATTATATACATA [GTGCAC_site9846] | PfAP2-LT AP2 domain (GST-tagged) | gcPBM binding intensity (ln) | 9.57 |
| AAAAAAAACAAATACACACGCACACCGAAAAAAAAA [CACACA_site803] | PfAP2-LT AP2 domain (GST-tagged) | gcPBM binding intensity (ln) | 9.6 |
| AAAAAAAGTAAATGTTGTACTATAATATGTAATATA [XGTACX_site7966] | PfAP2-LT AP2 domain (GST-tagged) | gcPBM binding intensity (ln) | 8.63 |
| AAATGTACAGGACGCACACACATATATATATATATA [CACACA_site3674] | PfAP2-LT AP2 domain (GST-tagged) | gcPBM binding intensity (ln) | 10.1 |
